organism: Bos taurus; assay: Inhibition of [3H]colchicine binding to bovine tubulin at 5 uM after 10 mins by DEAE-cellulose filter method
Class (by inhibition) -- low group: < 50%; middle group: ≥ 50% and < 60%; high group: ≥ 60%

| testSmiles | class |
| --- | --- |
| CCOC(=O)c1[nH]c2ccc(Cl)cc2c1Sc1cc(OC)c(OC)c(OC)c1 | middle group |

Using the reported inhibition, which band applies to `COC(=O)c1[nH]c2ccccc2c1Sc1cc(OC)c(OC)c(OC)c1` ?
high group

Using the reported inhibition, which band applies to `COC(=O)c1[nH]c2ccc(OC)cc2c1C(=O)c1cc(OC)c(OC)c(OC)c1` ?
high group

Using the reported inhibition, which band applies to `CCOC(=O)c1[nH]c2ccc(OC)cc2c1Sc1cc(OC)c(OC)c(OC)c1` ?
high group

Using the reported inhibition, which band applies to `COc1cc(C(=O)c2c[nH]c3ccccc23)cc(OC)c1OC` ?
low group
